# system_name: NLuc::LmxCLK1 (Leishmania mexicana)
# Sequence (E9AMP2 entry or part of it): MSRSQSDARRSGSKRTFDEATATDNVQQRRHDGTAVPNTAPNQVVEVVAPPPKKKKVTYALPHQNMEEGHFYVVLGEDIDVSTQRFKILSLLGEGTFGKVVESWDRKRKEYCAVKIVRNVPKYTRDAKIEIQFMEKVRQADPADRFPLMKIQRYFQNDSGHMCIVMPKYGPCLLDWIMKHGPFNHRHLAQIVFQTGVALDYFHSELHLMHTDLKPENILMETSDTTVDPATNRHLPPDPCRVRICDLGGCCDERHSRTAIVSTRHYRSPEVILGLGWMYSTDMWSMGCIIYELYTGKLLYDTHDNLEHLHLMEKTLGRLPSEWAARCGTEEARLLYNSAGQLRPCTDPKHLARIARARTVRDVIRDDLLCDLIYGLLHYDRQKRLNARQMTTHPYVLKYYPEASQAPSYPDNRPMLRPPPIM
# assay_notes: cell-based
# Type: cell-based
# condition_label: read-out: Target occupancy Run 1
measurement_name: receptor occupancy at 10 µM (%)
One number for each entry, in %.

Below: 10 compounds and their reported receptor occupancy at 10 µM.
O=C1NC(=O)/C(=C/c2ccc3nccc(-c4ccncc4)c3c2)S1
-4.2
CNC(=O)c1cccc(-c2ccc3c(N4CCOC[C@@H]4C)nc(N4CCOC[C@@H]4C)nc3n2)c1
8.9
CN(C[C@@H]1COCCO1)S(=O)(=O)Nc1ccc2ccc3ncc(-c4cnn(C)c4)cc3c(=O)c2c1
-9.3
Cn1cnc(N)c2ncnc1-2
2.8
COc1ccc(Cl)c(Nc2nc3ccccc3nc2NS(=O)(=O)c2cccc(NC(=O)C(C)(C)N)c2)c1
-8.3
Cc1nc(Nc2ncc(C(=O)Nc3c(C)cccc3Cl)s2)cc(N2CCN(CCO)CC2)n1
1.5
O=C(NC1CCNCC1)c1[nH]ncc1NC(=O)c1c(Cl)cccc1Cl
6.4
Cn1cc(C2=C(c3ccc(Cl)cc3Cl)C(=O)NC2=O)c2ccccc21
0.9
O=C(Nc1nc2cccc(-c3ccc(CN4CCS(=O)(=O)CC4)cc3)n2n1)C1CC1
-9.1
CN(C)Cc1cccc(N/C(=C2\C(=O)Nc3cc(C(N)=O)ccc32)c2ccccc2)c1
4.1

Can you give me receptor occupancy at 10 µM for all of these, one by one?
1. Cc1cnc(NC(=O)Nc2cc(Br)c(C)cc2OC[C@@H]2CNCCO2)cn1
2. CCNc1nc(Nc2cc(F)c(C(=O)N3CCOCC3)cc2OC)ncc1C(F)(F)F
3. C[C@H](NC(=O)/C(C#N)=C/c1cccc(Br)n1)c1ccccc1
4. COc1cccc2cc(-c3nc([C@H]4CC[C@H](C(=O)O)CC4)n4ncnc(N)c34)[nH]c12
5. COc1cc2ncnc(Oc3cccc(NC(=O)Nc4cc(C(C)(C)C(F)(F)F)on4)c3)c2cc1OC
6. C[C@H]1[C@H](C)CC[C@]2(C(=O)O)CC[C@]3(C)C(=CC[C@@H]4[C@@]5(C)C[C@@H](O)[C@H](O)[C@@](C)(CO)[C@@H]5CC[C@]43C)[C@H]12
7. Cc1c(Cn2c(C)nc3c(C(=O)O)cc(N4CCOCC4)cc32)cccc1C(F)(F)F
8. CCS(=O)(=O)c1cccc(-c2cc(C(=O)NC3CCN(C)CC3)c(C)c3[nH]c4ncc(C)cc4c23)c1

[reply]
7
-10.5
3.4
5.5
-2.2
8.6
2.9
-2.7

Can you give me receptor occupancy at 10 µM for all of these, one by one?
1. Cc1ccc2nc(NCCN)c3ncc(C)n3c2c1
2. O=C(/C=C/c1ccc(O)c(O)c1)c1ccc(O)cc1O
3. CS(=O)(=O)c1ccc(-c2cnc(N)c(C(=O)Nc3ccccc3)n2)cc1

[reply]
1: 7.2; 2: 3.3; 3: -11.1

Can you give me receptor occupancy at 10 µM for all of these, one by one?
1. COC[C@H]1OC(=O)c2coc3c2[C@@]1(C)C1=C(C3=O)[C@@H]2CCC(=O)[C@@]2(C)C[C@H]1OC(C)=O
2. O=C1c2ccc(Nc3ccc(F)cc3F)cc2CCc2ccc(OC[C@H](O)CO)cc21 [Skepinone-L]
3. O=C(Nc1ccc(OC(F)(F)F)cc1)c1sccc1NCc1ccnc2ccccc12

[reply]
-2.4
6.5
-0.4

Can you give me receptor occupancy at 10 µM for all of these, one by one?
1. CC(C)NC[C@@H](C(=O)N1CCN(c2ncnc3c2[C@H](C)C[C@H]3O)CC1)c1ccc(Cl)cc1
2. C=CC(=O)Nc1ccc2ncnc(Nc3ccc(OCc4cccc(F)c4)c(Cl)c3)c2c1
3. O=C(O)c1ccc(-c2c[nH]c3ncc(-c4ccccc4)cc23)cc1C1CCCC1
4. N#CC1(c2ccc(NC(=O)c3cccnc3NCc3ccncc3)cc2)CCCC1

[reply]
1: 6; 2: -7.7; 3: -24.3; 4: -9.2

Can you give me receptor occupancy at 10 µM for all of these, one by one?
1. C[C@@H]1COC(Nc2ccc3ncnc(Nc4ccc(OCc5nccs5)c(Cl)c4)c3c2)=N1
2. Cc1[nH]c(/C=C2\C(=O)Nc3ccc(S(=O)(=O)N(C)c4cccc(Cl)c4)cc32)c(C)c1C(=O)N1CCN(C)CC1

[reply]
[2.7, -7.3]

These data points were gathered from paper PMC7619385.
